Please provide measured IC50 for the entries that follow.
system: MCF7; assay: Cytotoxicity against human MCF7 cells assessed as growth inhibition after 48 hrs by MTT assay; format: functional, cell-based; details: MCF7, 48 h

Prompt line: Tell me the measured IC50 of O=C(C[n+]1cn(C(c2ccccc2)c2cc3ccccc3o2)c2ccccc21)c1ccc(F)cc1 (centres undefined) , please.
Response line: 12 µM

Prompt line: Tell me the measured IC50 of O=C(C[n+]1cn(C(c2ccccc2)c2cc3ccccc3o2)c2ccccc21)c1ccc(O)cc1 (centres undefined) , please.
Response line: > 40 µM

Prompt line: Tell me the measured IC50 of CCc1n(C(c2ccccc2)c2cc3ccccc3o2)cc[n+]1CC(=O)c1ccc(F)cc1 (centres undefined) , please.
Response line: 13.8 µM

Prompt line: Tell me the measured IC50 of COc1ccc(C(=O)C[n+]2ccn(C(c3ccccc3)c3cc4ccccc4o3)c2C)cc1 (centres undefined) , please.
Response line: 9.84 µM

Prompt line: Tell me the measured IC50 of O=[N+]([O-])c1ccc(C[n+]2cn(C(c3ccccc3)c3cc4ccccc4o3)c3ccccc32)cc1 (centres undefined) , please.
Response line: 16.4 µM

Prompt line: Tell me the measured IC50 of Cc1n(C(c2ccccc2)c2cc3ccccc3o2)cc[n+]1CC(=O)c1ccc2ccccc2c1 (centres undefined) , please.
Response line: 2.24 µM

Prompt line: Tell me the measured IC50 of c1ccc(C(c2cc3ccccc3o2)n2cnc3ccccc32)cc1 (centres undefined) , please.
Response line: > 40 µM

Prompt line: Tell me the measured IC50 of COc1ccc(C(=O)C[n+]2cn(C(c3ccccc3)c3cc4ccccc4o3)c3ccccc32)cc1.[Br-] (centres undefined) , please.
Response line: 2.29 µM

Prompt line: Tell me the measured IC50 of CCCC[n+]1ccn(C(c2ccccc2)c2cc3ccccc3o2)c1C (centres undefined) , please.
Response line: > 40 µM

###

test system: HL-60; test: Cytotoxicity against human HL60 cells assessed as growth inhibition after 48 hrs by MTT assay; format: functional, cell-based; conditions: HL-60, 48 h
observed_property: IC50 (nM)
Provide the reading as a plain figure in nM.

Prompt line: Tell me the measured IC50 of c1ccc(C[n+]2cn(C(c3ccccc3)c3cc4ccccc4o3)c3ccccc32)cc1 (stereo not drawn) , please.
Response line: 1050

Prompt line: Tell me the measured IC50 of O=C(C[n+]1cn(C(c2ccccc2)c2cc3ccccc3o2)c2ccccc21)c1ccccc1 (stereo not drawn) , please.
Response line: 2690

Prompt line: Tell me the measured IC50 of CCc1n(C(c2ccccc2)c2cc3ccccc3o2)cc[n+]1CC(=O)c1ccc(OC)cc1 (stereo not drawn) , please.
Response line: 2170

Prompt line: Tell me the measured IC50 of CCc1n(C(c2ccccc2)c2cc3ccccc3o2)cc[n+]1CC(=O)c1ccc(Br)cc1 (stereo not drawn) , please.
Response line: 2940

Prompt line: Tell me the measured IC50 of CCc1n(C(c2ccccc2)c2cc3ccccc3o2)cc[n+]1CC(=O)c1ccc(F)cc1 (stereo not drawn) , please.
Response line: 2380

Prompt line: Tell me the measured IC50 of COc1ccc(C(=O)C[n+]2ccn(C(c3ccccc3)c3cc4ccccc4o3)c2)cc1 (stereo not drawn) , please.
Response line: 2990

Prompt line: Tell me the measured IC50 of Cc1n(C(c2ccccc2)c2cc3ccccc3o2)cc[n+]1CC(=O)c1ccc2ccccc2c1 (stereo not drawn) , please.
Response line: 1850

###

tested on: MCF7; assay: Cytotoxicity against human MCF7 cells assessed as growth inhibition after 48 hrs by MTT assay; assay type: functional, cell-based; conditions: MCF7, 48 h
Please provide measured pIC50 for the entries that follow.
pIC50 (log units): -log10 of the concentration in mol/L.

Prompt line: Tell me the measured pIC50 of c1ccc(C[n+]2cn(C(c3ccccc3)c3cc4ccccc4o3)c3ccccc32)cc1 (stereo not given) , please.
Response line: 5.04

Prompt line: Tell me the measured pIC50 of CCc1n(C(c2ccccc2)c2cc3ccccc3o2)cc[n+]1CC(=O)c1ccc(Br)cc1 (stereo not given) , please.
Response line: 5.02

###

Please provide measured IC50 for the entries that follow.
test system: MCF7; assay: Cytotoxicity against human MCF7 cells assessed as growth inhibition after 48 hrs by MTT assay; assay type: functional, cell-based; settings: MCF7, 48 h
Provide the reading as a plain figure in µM.

Prompt line: Please tell me: IC50 of COc1ccc(C(=O)C[n+]2ccn(C(c3ccccc3)c3cc4ccccc4o3)c2)cc1 (centres undefined) , system MCF7?
Response line: 16.1

Prompt line: Please tell me: IC50 of CCc1n(C(c2ccccc2)c2cc3ccccc3o2)cc[n+]1CC(=O)c1ccccc1 (centres undefined) , system MCF7?
Response line: 14

Prompt line: Please tell me: IC50 of CCc1n(C(c2ccccc2)c2cc3ccccc3o2)cc[n+]1Cc1ccccc1 (centres undefined) , system MCF7?
Response line: 5.24

Prompt line: Please tell me: IC50 of Cc1n(C(c2ccccc2)c2cc3ccccc3o2)cc[n+]1CC(=O)c1ccc(F)cc1 (centres undefined) , system MCF7?
Response line: 10.7

###

Please provide measured IC50 for the entries that follow.
system: A549; assay: Cytotoxicity against human A549 cells assessed as growth inhibition after 48 hrs by MTT assay; assay type: functional, cell-based; conditions: A549, 48 h

Prompt line: Please tell me: IC50 of CCc1n(C(c2ccccc2)c2cc3ccccc3o2)cc[n+]1CC(=O)c1ccc2ccccc2c1 (stereo not given) , system A549?
Response line: 3.23 µM

Prompt line: Please tell me: IC50 of O=C(C[n+]1ccn(C(c2ccccc2)c2cc3ccccc3o2)c1)c1ccc(O)cc1 (stereo not given) , system A549?
Response line: > 40 µM

Prompt line: Please tell me: IC50 of Cc1n(C(c2ccccc2)c2cc3ccccc3o2)cc[n+]1CC(=O)c1ccccc1 (stereo not given) , system A549?
Response line: 18.8 µM

Prompt line: Please tell me: IC50 of O=C(C[n+]1ccn(C(c2ccccc2)c2cc3ccccc3o2)c1)c1ccccc1 (stereo not given) , system A549?
Response line: > 40 µM

Prompt line: Please tell me: IC50 of O=C(C[n+]1ccn(C(c2ccccc2)c2cc3ccccc3o2)c1)c1ccc(Br)cc1 (stereo not given) , system A549?
Response line: 15.5 µM

Prompt line: Please tell me: IC50 of Cc1n(C(c2ccccc2)c2cc3ccccc3o2)cc[n+]1CC(=O)c1ccc(O)cc1 (stereo not given) , system A549?
Response line: > 40 µM

Prompt line: Please tell me: IC50 of CCc1nccn1C(c1ccccc1)c1cc2ccccc2o1 (stereo not given) , system A549?
Response line: > 40 µM

Prompt line: Please tell me: IC50 of CCCC[n+]1ccn(C(c2ccccc2)c2cc3ccccc3o2)c1C (stereo not given) , system A549?
Response line: > 40 µM

Prompt line: Please tell me: IC50 of O=C(C[n+]1cn(C(c2ccccc2)c2cc3ccccc3o2)c2ccccc21)c1ccc2ccccc2c1.[Br-] (stereo not given) , system A549?
Response line: 3.43 µM

Prompt line: Please tell me: IC50 of CCCC[n+]1ccn(C(c2ccccc2)c2cc3ccccc3o2)c1CC (stereo not given) , system A549?
Response line: > 40 µM

Prompt line: Please tell me: IC50 of C=CC[n+]1ccn(C(c2ccccc2)c2cc3ccccc3o2)c1 (stereo not given) , system A549?
Response line: > 40 µM

Prompt line: Please tell me: IC50 of Cc1n(C(c2ccccc2)c2cc3ccccc3o2)cc[n+]1CC(=O)c1ccc(F)cc1 (stereo not given) , system A549?
Response line: 21.7 µM

Prompt line: Please tell me: IC50 of c1ccc(C[n+]2ccn(C(c3ccccc3)c3cc4ccccc4o3)c2)cc1 (stereo not given) , system A549?
Response line: > 40 µM

Prompt line: Please tell me: IC50 of Cc1nccn1C(c1ccccc1)c1cc2ccccc2o1 (stereo not given) , system A549?
Response line: > 40 µM

Prompt line: Please tell me: IC50 of O=C(C[n+]1cn(C(c2ccccc2)c2cc3ccccc3o2)c2ccccc21)c1ccc(Br)cc1 (stereo not given) , system A549?
Response line: 4.76 µM

Prompt line: Please tell me: IC50 of O=C(C[n+]1cn(C(c2ccccc2)c2cc3ccccc3o2)c2ccccc21)c1ccc(F)cc1 (stereo not given) , system A549?
Response line: 9.15 µM

Prompt line: Please tell me: IC50 of CCc1n(C(c2ccccc2)c2cc3ccccc3o2)cc[n+]1CC(=O)c1ccc(Br)cc1 (stereo not given) , system A549?
Response line: 14.1 µM

Prompt line: Please tell me: IC50 of C=CC[n+]1ccn(C(c2ccccc2)c2cc3ccccc3o2)c1CC (stereo not given) , system A549?
Response line: > 40 µM

Prompt line: Please tell me: IC50 of O=C(C[n+]1ccn(C(c2ccccc2)c2cc3ccccc3o2)c1)c1ccc(F)cc1 (stereo not given) , system A549?
Response line: > 40 µM

Prompt line: Please tell me: IC50 of COc1ccc(C(=O)C[n+]2ccn(C(c3ccccc3)c3cc4ccccc4o3)c2)cc1 (stereo not given) , system A549?
Response line: 14.6 µM
